# Target: T1, recombinant human IL-12 (rhIL-12) (human, UniProt P29459 23-219; P29460 23-328)
# T1 chain 1: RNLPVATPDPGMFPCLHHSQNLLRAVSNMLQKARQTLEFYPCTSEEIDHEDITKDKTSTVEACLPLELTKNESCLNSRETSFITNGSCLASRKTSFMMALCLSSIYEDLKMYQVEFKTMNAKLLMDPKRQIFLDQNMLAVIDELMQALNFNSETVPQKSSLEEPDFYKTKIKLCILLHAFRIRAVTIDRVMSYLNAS
# T1 chain 2: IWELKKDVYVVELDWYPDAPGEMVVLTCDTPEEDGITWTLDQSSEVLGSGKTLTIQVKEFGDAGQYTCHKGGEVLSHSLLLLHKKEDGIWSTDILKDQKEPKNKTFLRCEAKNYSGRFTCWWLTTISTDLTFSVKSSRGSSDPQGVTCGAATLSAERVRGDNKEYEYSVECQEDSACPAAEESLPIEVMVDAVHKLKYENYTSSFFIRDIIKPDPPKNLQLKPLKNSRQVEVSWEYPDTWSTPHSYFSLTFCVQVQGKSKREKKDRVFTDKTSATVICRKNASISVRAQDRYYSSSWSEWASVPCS
# Assay comment: BIAcore
Test readout: koff (s⁻¹)
Response body: numeric value in s⁻¹, unit text excluded.

Given QSYDQGTHPALL [Y61 L93 Q] , state its recorded koff.
0.0003

Given QSYDRHTHPALL [Y61 L94 H] , state its recorded koff.
0.000187

Given QSYDNGTHPALL [Y61 L93 N] , state its recorded koff.
0.000316

Given QSYQRGTHPALL [Y61 L92 Q] , state its recorded koff.
0.000427

Given QSYDGGTHPALL [Y61 L93 G] , state its recorded koff.
0.000392

Given QSYDWGTHPALL [Y61 L93 W] , state its recorded koff.
0.000349

Given QSYDIGTHPALL [Y61 L93 I] , state its recorded koff.
0.000295

Given QSYDRCTHPALL [Y61 L94 C] , state its recorded koff.
0.00052

Given QSYDRTTHPALL [Y61 L94 T] , state its recorded koff.
0.000305

Given QSYDCGTHPALL [Y61 L93 C] , state its recorded koff.
0.00032
